The measurements presented in this section are drawn from paper PMC4970510.

- testedOn: hA1AR (Homo sapiens)
- Sequence (P30542 1-326): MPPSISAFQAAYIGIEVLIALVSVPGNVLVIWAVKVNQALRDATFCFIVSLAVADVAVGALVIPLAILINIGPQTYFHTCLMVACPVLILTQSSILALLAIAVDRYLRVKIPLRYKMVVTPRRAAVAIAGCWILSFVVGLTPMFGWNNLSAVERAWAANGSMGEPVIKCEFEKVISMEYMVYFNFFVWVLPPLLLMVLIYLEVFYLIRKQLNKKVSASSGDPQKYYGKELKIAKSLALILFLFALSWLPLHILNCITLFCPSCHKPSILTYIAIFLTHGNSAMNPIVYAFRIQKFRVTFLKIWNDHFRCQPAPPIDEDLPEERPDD
pKi: −log10 of the molar value.
readoutLabel: pKi

| molecule | pKi |
| --- | --- |
| CNC(=O)[C@@]12C[C@@H]1[C@@H](n1cnc3c(C)nc(C#Cc4ccc(Cl)s4)nc31)[C@H](O)[C@@H]2O [Compound 19] | < 5.00 |

Moving on to the next molecule.
Input: Please report pKi with hA1AR (Homo sapiens) for item CNC(=O)[C@@]12C[C@@H]1[C@@H](n1cnc3cnc(C#Cc4ccc(Cl)s4)nc31)[C@H](O)[C@@H]2O [Compound 21] .
Output: < 5.00

* * *

Here's what we have: Ki numbers for UniProt:P29274.
Sequence (P29274 whole entry): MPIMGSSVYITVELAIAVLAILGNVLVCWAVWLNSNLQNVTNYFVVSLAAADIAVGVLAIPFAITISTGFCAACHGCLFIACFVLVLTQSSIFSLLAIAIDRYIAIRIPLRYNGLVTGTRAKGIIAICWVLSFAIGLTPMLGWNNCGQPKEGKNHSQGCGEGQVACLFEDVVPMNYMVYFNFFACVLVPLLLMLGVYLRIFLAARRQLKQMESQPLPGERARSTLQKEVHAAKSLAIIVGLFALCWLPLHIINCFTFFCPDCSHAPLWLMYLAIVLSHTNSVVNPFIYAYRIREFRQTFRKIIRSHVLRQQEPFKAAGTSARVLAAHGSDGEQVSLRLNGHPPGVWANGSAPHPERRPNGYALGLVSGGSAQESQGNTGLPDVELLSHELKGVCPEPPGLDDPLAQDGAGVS

| smilesText | testedOn | endpointResult |
| --- | --- | --- |
| CNC(=O)[C@@]12C[C@@H]1[C@@H](n1cnc3c(C)nc(C#Cc4ccc(Cl)s4)nc31)[C@H](O)[C@@H]2O | UniProt:P29274 | > 10 µM |

Moving on to the next compound.
Input: Please report Ki with UniProt:P29274 for item CNC(=O)[C@@]12C[C@@H]1[C@@H](n1cnc3cnc(C#Cc4ccc(Cl)s4)nc31)[C@H](O)[C@@H]2O .
Output: > 10 µM
